target: native GABAA receptors in membranes prepared from brain; assay: [3H]flumazenil competition binding, brain membranes; conditions: mouse brain membranes, 1.2 nM [3H]flumazenil, mean ± SD of 3
pKi: −log10 of the molar value.

Smiles repr	Experimental system	pKi
C#Cc1ccc2c(c1)C(c1ccccn1)=NCc1c(C(=O)OCC)ncn1-2	native GABAA receptors in membranes prepared from brain	6.55

---

target: native GABAA receptors in membranes derived from spinal cord; assay: [3H]flumazenil competition binding, spinal cord membranes; details: mouse spinal cord membranes, 1.2 nM [3H]flumazenil, mean ± SD of 3

Smiles repr	Unit text	Ki
C#Cc1ccc2c(c1)C(c1ccccn1)=NCc1c(C(=O)OCC)ncn1-2	nM	189
